Test system: Yersinia pseudotuberculosis
Test: Effect on T3S in Yersinia pseudotuberculosis 3 pIB29 assessed as inhibition of light emission at 100 uM by luciferase reporter gene assay
Here the recorded inhibition is given for each entry.
Give the value, in units of %, as a plain number.

# RECORD SMILES, VALUE KIND, SCALE UNIT, VALUE OBSERVED
rows = [
    ("O=C(Nc1ccc(Cl)cc1)c1ccccc1O", "inhibition", "%", 100),
    ("CC(=O)Oc1ccc(F)cc1C(=O)Nc1ccc(C(C)(C)C)cc1", "inhibition", "%", 22),
    ("CC(=O)Oc1c(I)cc(I)cc1C(=O)Nc1ccc(C(C)(C)C)cc1", "inhibition", "%", 2),
    ("CC(C)(C)c1ccc(NC(=O)c2c(O)c(Cl)cc(Cl)c2Cl)cc1", "inhibition", "%", 34),
    ("CC(=O)Oc1cc(C)ccc1C(=O)Nc1ccccc1F", "inhibition", "%", 95),
]

The record that follows has no inhibition shown yet.
Exercise: Can you look up the measured inhibition of CC(=O)Oc1c(I)cc(I)cc1C(=O)Nc1cc(Cl)ccc1F for me?
Key: 95

----------
Tested on: Yersinia pseudotuberculosis
Experiment: Effect on T3S in Yersinia pseudotuberculosis 3 pIB29 assessed as inhibition of light emission at 1 uM by luciferase reporter gene assay
VALUE KIND: inhibition (%)
Give the value, in units of %, as a plain number.

# RECORD SMILES, inhibition [%]
measured = [
    ("O=C(Nc1ccc(Br)cc1)c1cc(I)cc(I)c1O", 64),
    ("CC(=O)Oc1c(Cl)cc(Cl)c(Cl)c1C(=O)Nc1ccc(SC(F)(F)F)cc1", 15),
    ("O=C(Nc1ccc(Br)cc1)c1cc(I)ccc1O", 49),
    ("CC(=O)Oc1c(Cl)cccc1C(=O)Nc1ccc(Br)cc1", 8),
    ("O=C(Nc1ccc(Cl)cc1)c1cc(I)ccc1O", 68),
]

Exercise: Can you look up the measured inhibition of CC(=O)Oc1c(I)cc(I)cc1C(=O)Nc1ccc(Br)cc1 for me?
Key: 8

Exercise: Can you look up the measured inhibition of CC(=O)Oc1c(I)cc(I)cc1C(=O)Nc1ccc(SC(F)(F)F)cc1 for me?
Key: 11

Exercise: Can you look up the measured inhibition of CC(=O)Oc1c(I)cc(I)cc1C(=O)Nc1ccc(F)cc1 for me?
Key: 6

Exercise: Can you look up the measured inhibition of CC(=O)Oc1ccc(I)cc1C(=O)Nc1ccc(Br)cc1 for me?
Key: 71

Exercise: Can you look up the measured inhibition of O=C(Nc1cc(Cl)ccc1F)c1cc(I)cc(I)c1O for me?
Key: 2

Exercise: Can you look up the measured inhibition of CC(=O)Oc1ccc(Cl)cc1C(=O)Nc1ccc(Cl)c(C)c1 for me?
Key: 50

Exercise: Can you look up the measured inhibition of CC(=O)Oc1c(I)cc(I)cc1C(=O)Nc1cc(Cl)ccc1F for me?
Key: 1

Exercise: Can you look up the measured inhibition of CC(=O)Oc1ccc(I)cc1C(=O)Nc1ccc(SC(F)(F)F)cc1 for me?
Key: 52

Exercise: Can you look up the measured inhibition of O=C(Nc1ccc(Br)cc1)c1cccc(Cl)c1O for me?
Key: 6

Exercise: Can you look up the measured inhibition of O=C(Nc1ccc(F)cc1)c1cc(I)cc(I)c1O for me?
Key: 3
